Reported protein stability index by item:
# PROCEDURE TEXT: protein stability index of a GFP-peptide fusion (GPS, HEK-293T) (PSI 1-6); higher = more stable;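 note: 24-mer peptide tiles fused after GFP, lentivirally expressed, FACS-sorted into six equal bins by GFP/DsRed ratio, decoded by Illumina sequencing, PSI is the read-weighted mean bin number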
# MEASUREMENT PARAMETERS: treatment: DMSO; c terminus: a fixed tail appended
The answer should be a number; do not append a unit.

# example entries with known answers
- SEQ TEXT: "VEEGNVQTLLPAACLLQLAEIQEA [KLHL20]"
  VAL: 3.58
- SEQ TEXT: "KRQVPREQAQAYAERLGVTFFEVS [RAB40A]"
  VAL: 3.11
- SEQ TEXT: "RTLSLIVCTFTYLLVGAAVFDALE [KCNK9]"
  VAL: 2.82
- SEQ TEXT: "LHEALQDYEAGQHMEDPRRAGKML [ESRRG]"
  VAL: 4.74
- SEQ TEXT: "FMECLVDARMLDHLTKKDLRVHLK [PPFIA4]"
  VAL: 2.4

For record IQDKLFQVAKREREAATKHSKASL [CHCHD6] the listed protein stability index is 3.86

Sample LPREEEIVFPEKLNGSVLPGSGAP [ADAMTS4] ; protein stability index observed: 4.49

The reported protein stability index of the sequence AIELFHSYRETRRKEGIVKLKPHE [PTPN9] was 3

* * *

# PROCEDURE TEXT: protein stability index of a GFP-peptide fusion (GPS, HEK-293T) (PSI 1-6); higher = more stable
# MEASUREMENT PARAMETERS: treatment: MLN4924 1 uM, 8 h; c terminus: a fixed tail appended
MEASURE NAME: protein stability index
Keep it simple and answer with nothing but the number.

Below: 4 sequences and their reported protein stability index.
- SEQ TEXT: "SWNVAVKFLMARKFDVLRAIELFH [PTPN9]"
  protein stability index: 2.31
- SEQ TEXT: "LSASGPFESHDLLRKGFSCVKNEL [POMP]"
  protein stability index: 3.35
- SEQ TEXT: "HTLRASMRELGLLIFFLFIGVILF [KCNA4]"
  protein stability index: 2.61
- SEQ TEXT: "DVAVTVDRDRFMDEFFEQVEEIRG [STX1A]"
  protein stability index: 4.49

protein stability index reading for EQKRLERLQRKLVEPKHCFTSPDY [SDE2] : 3.62

Summary for this sequence, FVADEGICYLPHWMMQNLLLEEGG [UFD1] : protein stability index is 2.28

For record GMLCSFRIPGAWSCAWSLNIQANN [DCAF4] the listed protein stability index is 2

* * *

# PROCEDURE TEXT: protein stability index of a GFP-peptide fusion (GPS, HEK-293T) (PSI 1-6); higher = more stable
# MEASUREMENT PARAMETERS: treatment: DMSO; c terminus: a fixed tail appended
Kind request: treat 3 as inclusive, so protein stability index at 3 or higher is 1.0, anything lower is 0.0.

- SEQ TEXT: "VLSSWSRAFVSIQEEMAEDPLTYK [RHOBTB2]"
  LABEL VALUE: 0.0

Form field: protein stability index at least 3? Entry: QRFEVIEFDDGSGSVLRIQPLRTP [PTPRD]
0.0

Can GEKPHRCPQCGKCFARKSQLTGHQ [ZNF449] be said to have protein stability index at or above 3?
1.0

Given the entry EQKRLERLQRKLVEPKHCFTSPDY [SDE2] , answer whether its protein stability index meets or surpasses 3.
1.0

In plain terms: is recorded protein stability index at least 3 for AMAAAEGSSGPAGLTLGRSFSNYR [SEPHS2] ?
1.0
